Values from BigSolDB 2.1

# test-context: in n-butanol, 328.15 K

{"molecule": "Cc1nc2n(c(=O)c1CCN1CCC(c3noc4cc(F)ccc34)CC1)CCCC2O (stereo unspecified)", "solubility (mole fraction)": 0.00115}

----------
# test-context: in ethyl acetate, 318.15 K

{"compound": "Cc1nc2n(c(=O)c1CCN1CCC(c3noc4cc(F)ccc34)CC1)CCCC2O (stereo unspecified)", "solubility (mole fraction)": 0.000415}

----------
# test-context: in methyl acetate, 328.15 K

{"compound": "Cc1nc2n(c(=O)c1CCN1CCC(c3noc4cc(F)ccc34)CC1)CCCC2O (stereo unspecified)", "solubility (mole fraction)": 0.000814}

----------
# test-context: in acetonitrile, 288.15 K

{"molecule": "Cc1nc2n(c(=O)c1CCN1CCC(c3noc4cc(F)ccc34)CC1)CCCC2O (stereo unspecified)", "solubility (mole fraction)": "2.45e-05"}

----------
# test-context: in methanol, 308.15 K

{"compound": "Cc1nc2n(c(=O)c1CCN1CCC(c3noc4cc(F)ccc34)CC1)CCCC2O (stereo unspecified)", "solubility (mole fraction)": 0.000347}

----------
# test-context: in methanol, 323.15 K

{"compound": "Cc1nc2n(c(=O)c1CCN1CCC(c3noc4cc(F)ccc34)CC1)CCCC2O (stereo unspecified)", "solubility (mole fraction)": 0.000815}

----------
# test-context: in 1,4-dioxane, 288.15 K

{"molecule": "Cc1nc2n(c(=O)c1CCN1CCC(c3noc4cc(F)ccc34)CC1)CCCC2O (stereo unspecified)", "solubility (mole fraction)": 0.00042}

----------
# test-context: in ethanol, 313.15 K

{"molecule": "Cc1nc2n(c(=O)c1CCN1CCC(c3noc4cc(F)ccc34)CC1)CCCC2O (stereo unspecified)", "solubility (mole fraction)": 0.000338}

----------
# test-context: in isopropanol, 313.15 K

{"compound": "Cc1nc2n(c(=O)c1CCN1CCC(c3noc4cc(F)ccc34)CC1)CCCC2O (stereo unspecified)", "solubility (mole fraction)": 0.000179}

----------
# test-context: in ethanol, 318.15 K

{"molecule": "Cc1nc2n(c(=O)c1CCN1CCC(c3noc4cc(F)ccc34)CC1)CCCC2O (stereo unspecified)", "solubility (mole fraction)": 0.00045}

----------
# test-context: in isopropanol, 328.15 K

{"molecule": "Cc1nc2n(c(=O)c1CCN1CCC(c3noc4cc(F)ccc34)CC1)CCCC2O (stereo unspecified)", "solubility (mole fraction)": 0.000502}

----------
# test-context: in THF, 288.15 K
test-readout: solubility (mole fraction)

{"compound": "Cc1nc2n(c(=O)c1CCN1CCC(c3noc4cc(F)ccc34)CC1)CCCC2O (stereo unspecified)", "value-observed": 0.000399}

----------
# test-context: in THF, 303.15 K

{"compound": "Cc1nc2n(c(=O)c1CCN1CCC(c3noc4cc(F)ccc34)CC1)CCCC2O (stereo unspecified)", "solubility (mole fraction)": 0.00101}

----------
# test-context: in methanol, 293.15 K

{"compound": "Cc1nc2n(c(=O)c1CCN1CCC(c3noc4cc(F)ccc34)CC1)CCCC2O (stereo unspecified)", "solubility (mole fraction)": 0.000143}

----------
# test-context: in n-propyl acetate, 323.15 K

{"compound": "Cc1nc2n(c(=O)c1CCN1CCC(c3noc4cc(F)ccc34)CC1)CCCC2O (stereo unspecified)", "solubility (mole fraction)": 0.000537}
